Listed below: MST values for each entry.
system: Plasmodium gallinaceum; assay: Antimalarial activity against trophozoite-induced Plasmodium gallinaceum infected in white leghorn chicken assessed as increase in mean survival days of host at 20 mg/kg, sc administered 72 hrs after infection relative to control; assay type: functional; conditions: route subcutaneous
Provide the measurement as a number trailed by its unit.

* Cc1ccc(Cl)cc1Sc1ccc2nc(N)nc(N)c2c1 | 7.4 days
* Nc1nc(N)c2cc(Sc3cccc(-c4ccccc4)c3)ccc2n1 | 0 days
* Nc1nc(N)c2cc(NCc3ccc(Cl)c(Cl)c3)ccc2n1 | 7 days
* Nc1nc(N)c2cc(Sc3ccccc3)ccc2n1 | 5.6 days
* Nc1nc(N)c2cc(Sc3ccc(F)cc3)ccc2n1 | 7.8 days
* Nc1nc(N)c2cc(Sc3cccc4ccccc34)ccc2n1 | 17.4 days
* Nc1nc(N)c2cc(Sc3ccccc3Cl)ccc2n1 | 6 days
* Nc1nc(N)c2cc(Sc3ccc(Br)cc3)ccc2n1 | 11.8 days
* Cc1ccc(Sc2ccc3nc(N)nc(N)c3c2)cc1 | 7.6 days
* CN(Cc1ccc(Cl)c(Cl)c1)c1ccc2nc(N)nc(N)c2c1 | 10.6 days

Please tell me the measured MST for `Cc1ccccc1Sc1ccc2nc(N)nc(N)c2c1` ; system: Plasmodium gallinaceum.
7.6 days

Under Plasmodium gallinaceum, report MST for `Nc1nc(N)c2cc(Sc3ccc4ccccc4c3)ccc2n1`
7.8 days

Print Plasmodium gallinaceum MST for `Cc1cccc(Sc2ccc3nc(N)nc(N)c3c2)c1` .
6.2 days
